- tested.system: human 5HT1A-serotonergic receptor (Homo sapiens, UniProt P08908)
- Construct: expressed in transfected cells; host or cells: HeLa (human), stably transfected; membranes
- Sequence (P08908 whole entry): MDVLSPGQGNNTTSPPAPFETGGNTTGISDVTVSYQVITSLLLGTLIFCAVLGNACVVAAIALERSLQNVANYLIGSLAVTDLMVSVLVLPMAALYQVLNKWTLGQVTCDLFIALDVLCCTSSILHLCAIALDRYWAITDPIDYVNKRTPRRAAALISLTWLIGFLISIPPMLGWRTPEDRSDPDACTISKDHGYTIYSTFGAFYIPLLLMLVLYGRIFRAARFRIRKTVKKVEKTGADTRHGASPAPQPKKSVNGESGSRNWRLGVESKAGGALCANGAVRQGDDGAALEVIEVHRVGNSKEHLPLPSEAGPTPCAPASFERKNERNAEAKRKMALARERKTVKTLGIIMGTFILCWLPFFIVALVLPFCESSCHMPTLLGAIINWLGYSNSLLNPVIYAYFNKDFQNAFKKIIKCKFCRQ
- method.summary: Radioligand binding to recombinant 5-HT1A receptor ([3H]8-OH-DPAT, HeLa cell membranes)
- condition.label: 1 nM [3H]8-OH-DPAT; Ki from IC50 by the Cheng equation; read-out: Ki (nM), binding affinity for 5HT1A receptor
- Protocol: Genomic clone G-21 encoding the human 5HT1A-serotonergic receptor was stably transfected in a human cell line (HeLa). […] Non-specific binding was determined in the presence of 10 μM 5-HT. […] The affinity of the tested compounds was evaluated as inhibition of specific binding of the radioligand to 5-HT1A receptor (IC50) by using the non-linear curve-fitting program Allfit (De Lean et al., Am. J. Physiol. 235, E97-E102 (1978)). […]
Measured Ki of individual entries
Provide only the numeric value, understood in nM.

>>> df
                                   compound                             tested_system  unit_symbol  measured_result
0  COc1ccc(Br)c(CN2CCN(CCC(c3ccccc3F)C(NC(C)=O)C3CCCCC3)CC2)c1 (stereo not shown) [Example 45]  human 5HT1A-serotonergic receptor (Homo sapiens, UniProt P08908)           nM              1.1
1  COc1ccccc1N1CCN(CC[C@H](c2ccccc2F)[C@H](NC(C)=O)C2CCCCC2)CC1 (racemic) [Example 9]  human 5HT1A-serotonergic receptor (Homo sapiens, UniProt P08908)           nM              1.4
2  COc1ccc(Br)c(CN2CCN(CCC(c3ccccc3F)C(N)C3CCCCC3)CC2)c1 (stereo not shown) [Example 43]  human 5HT1A-serotonergic receptor (Homo sapiens, UniProt P08908)           nM              0.3

// next item, Ki requested
Task item: Identify measured Ki associated with CON[C@H](C1CCCCC1)[C@@H](CCN1CCN(c2ccccc2OC)CC1)c1ccccc1F (racemic) [Example 4a]
Reply: 0.68

====

- tested.system: 5-HT1A receptors (Rattus norvegicus, UniProt P19327)
- Construct: from tissue; host or cells: living male Sprague-Dawley rats (whole animal, behavioural read-out)
- Sequence (P19327 whole entry): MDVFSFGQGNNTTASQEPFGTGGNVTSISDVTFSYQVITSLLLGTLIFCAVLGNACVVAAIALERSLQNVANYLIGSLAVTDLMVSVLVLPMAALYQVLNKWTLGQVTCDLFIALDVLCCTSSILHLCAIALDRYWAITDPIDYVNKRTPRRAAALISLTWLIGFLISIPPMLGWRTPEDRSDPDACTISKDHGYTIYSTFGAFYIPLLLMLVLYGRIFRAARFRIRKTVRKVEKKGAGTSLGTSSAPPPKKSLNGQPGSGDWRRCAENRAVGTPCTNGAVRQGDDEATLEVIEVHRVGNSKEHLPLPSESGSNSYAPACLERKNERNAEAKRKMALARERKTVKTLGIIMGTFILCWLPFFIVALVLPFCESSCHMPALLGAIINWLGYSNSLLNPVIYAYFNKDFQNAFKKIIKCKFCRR
- method.summary: Inhibition of serotonergic syndrome (forepaw treading) induced by 8-OH-DPAT in rats (post-synaptic antagonism)
- Type: in vivo
- condition.label: rat, 10 mg/kg p.o., 1 h before 8-OH-DPAT 1 mg/kg s.c., read-out: % Inhibition of forepaw treading, 1 h
Decision: inhibition at 10 mg/kg compared against 70%; not below it gives true (1), below it gives false (0).

Worked set:
                                   molecule  assigned_category
0  COc1ccccc1N1CCN(CC[C@@H](c2ccccc2F)[C@H](NC(C)=O)C2CCCCC2)CC1 (racemic)           true (1)
1  COc1ccccc1N1CCN(CC[C@@H](c2ccccc2F)[C@H](NC(=O)N(C)C)C2CCCCC2)CC1 (racemic)           true (1)
2  COc1ccccc1N1CCN(CC[C@@H](c2ccccc2F)[C@@H](C2CCCCC2)N(C)C)CC1 (racemic)          false (0)
3  COc1ccccc1N1CCN(CC[C@@H](c2ccccc2F)[C@H](NC(=S)N(C)C)C2CCCCC2)CC1 (racemic)           true (1)
4  CONC(C1CCCCC1)C(CCN1CCN(c2ccccc2OC)CC1)c1ccccc1F (mixture of isomers)           true (1)

Turning now to a further record.
Task item: Does inhibition at 10 mg/kg meet or surpass 70% for COC(=O)N[C@H](C1CCCCC1)[C@@H](CCN1CCN(c2ccccc2OC)CC1)c1ccccc1F (racemic) ?
Reply: true (1)

FYI, the data here is from patent US20070270436A1.
